assay: Plasma stability test (Test Example 3); format: in vitro ADME; settings: human plasma, 37° C., 60 min
Measurement type: plasma concentration of the compound of the examples (nM)

smiles_input=CC(C)[C@H](N)C(=O)OCCOC(=O)N1C[C@@]2(CCC(=O)N2)CC[C@@]1(CO[C@H](C)c1cc(C(F)(F)F)cc(C(F)(F)F)c1)c1ccccc1.O=C(O)C(F)(F)F observed_measurement=920
smiles_input=C[C@@H](OC[C@@]1(c2ccccc2)CC[C@]2(CCC(=O)N2C(=O)OCC(=O)O)CN1)c1cc(C(F)(F)F)cc(C(F)(F)F)c1 observed_measurement=850
smiles_input=C[C@@H](OC[C@@]1(c2ccccc2)CC[C@]2(CCC(=O)N2)CN1C(=O)OCCN1CCN(C)CC1)c1cc(C(F)(F)F)cc(C(F)(F)F)c1 observed_measurement=1000
smiles_input=CC(C)[C@H](N)C(=O)OCCCOC(=O)N1C[C@@]2(CCC(=O)N2)CC[C@@]1(CO[C@H](C)c1cc(C(F)(F)F)cc(C(F)(F)F)c1)c1ccccc1.O=C(O)C(F)(F)F observed_measurement=960
